Measured values drawn from ChEMBL document CHEMBL1201862 for this set.

System: SW-620
assay_procedure: NCI tumour cell line growth inhibition, 48 h
Calls of active or inactive are those of the source. No stated cut-off is given here; in the data, active = GI50 up to about 1.1 µM and inactive = higher.
The reader will find reported GI50 values listed item by item below.

compound: Cc1ccc(NC(=O)C2C(=O)N(c3ccc(C)c(C)c3)C(=O)/C2=N/O)cc1C (centres undefined)
property_measured: GI50
result: 19.3 µM (inactive)
--
compound: O=C(O)CN(CCNC(=O)OCC1c2ccccc2-c2ccccc21)CCNC(=O)OCC1c2ccccc2-c2ccccc21
property_measured: GI50
result: 21.2 µM (inactive)
--
compound: Cc1ccc2c(O)cc(-c3cc(C)sc3C)nc2n1
property_measured: GI50
result: 1.67 µM (inactive)

Input line: Let me know recorded GI50 for CC(C)N(C(=O)C12C3C4C1C1C2C3C41C(=O)C(C)(C)C)C(C)C (centres undefined) , thanks.
Output line: 47.4 µM (inactive)

* * *

Test system: CCRF-CEM
assay_procedure: NCI tumour cell line growth inhibition, 48 h
Activity calls are given as the source filed them. Rule as the data show it: active = GI50 up to about 1.1 µM and inactive = higher.
Returns: one label drawn from YES (active), NO (inactive)

Reference set (3 entries):
compound: COc1cc(/C=N/Nc2nnc3c4ccccc4c4ncccc4c3n2)cc(OC)c1OC
class_label: NO
--
compound: O=C(O)c1ccc(C(=O)O)c(C(=O)Nc2ccc3c(c2)C(=O)c2ccccc2-3)c1
class_label: NO
--
compound: Cc1nc2c(cc1OCc1ccccc1)C(=O)C1=C(C2=O)C2OC(=O)CC2OC1(C)C (centres undefined)
class_label: YES

Input line: What did this assay record as the result for CN(CCNCc1cn(C)c2c1ccc1ccccc12)CCNCc1cn(C)c2c1ccc1ccccc12 ?
Output line: YES

Input line: What did this assay record as the result for CCCc1cc(O)c2c(C)c3[nH]c4ccc(Cl)cc4c3c(C)c2n1 ?
Output line: NO

Input line: What did this assay record as the result for COc1ccc(OC)c(NC(=O)C(=O)Nn2c(S)nc3ccccc3c2=O)c1 ?
Output line: NO

Input line: What did this assay record as the result for C/C(=C/c1ccccc1)CN(C(=O)/C=C\Sc1ccccc1)C(C)(C)C ?
Output line: NO

Input line: What did this assay record as the result for COc1ccc(C(=O)C2CCC(C(=O)O)C2)cc1 (centres undefined) ?
Output line: NO

Input line: What did this assay record as the result for C[C@]12CC/C(=N\OC(=O)Nc3ccccc3)C=C1CC[C@@H]1C2CC[C@@]2(C)C1CC[C@@H]2OC(=O)Nc1ccccc1 (some centres undefined) ?
Output line: NO

* * *

System: RXF 393
assay_procedure: NCI tumour cell line growth inhibition, 48 h
The source made the active and inactive calls. Rule as the data show it: active = GI50 up to about 1.1 µM and inactive = higher.
Returns: one label drawn from active, inactive

Reference set (5 entries):
compound: Cc1ccc(SC2C(=O)C3CC(OCc4ccccc4)C2(C)C3(C)C)cc1 (centres undefined)
assay_target: RXF 393
class_label: inactive
//
compound: Cc1cc2nc(N3C(=O)/C(=C/c4ccc(N(C)C)cc4)N=C3c3ccccc3)sc2cc1C
assay_target: RXF 393
class_label: inactive
//
compound: Cc1cc2c(c(C)c1O)C(C)(C)CN2C(=O)C(C)(C)C
assay_target: RXF 393
class_label: inactive
//
compound: CC(=O)c1cc2c(s1)C(=O)c1sccc1C2=O
assay_target: RXF 393
class_label: active
//
compound: COc1ccc([C@@]23OC[C@@H]4[C@@H](OC[C@@H]42)c2cc(OC)c(OC)cc23)cc1OC
assay_target: RXF 393
class_label: inactive

Input line: What did this assay record as the result for CNS(=O)(=O)NN(C)S(=O)(=O)c1ccc(OC)cc1 ?
Output line: inactive

Input line: What did this assay record as the result for CC(=O)/C(=C\I)c1ccccc1 ?
Output line: inactive

Input line: What did this assay record as the result for O=C1C(Cl)=C(N2CCC[C@H]2CO)C(=O)c2c(O)ccc(O)c21 ?
Output line: inactive

Input line: What did this assay record as the result for Nc1ccc(C(=O)NN2C(=O)C(Cl)C2c2ccccc2Cl)cc1 (centres undefined) ?
Output line: inactive
